Reference source: patent US10172814B2

Entries annotated with measured % inhibition of PGE2 in vivo vs vehicle
Tested on: CFA induced PGE2 release in the ipsilateral inflamed hind paw of human KI mice (expressing human PTGES)
Test: PGE2 measurements in CFA inflammation model using humanized KI mice
Type: in vivo
Conditions: 10 mg/kg, p.o., single dose; hind paw 48 h after CFA, 1 h after dose
# number only, unit % dropped from output

Some compounds with recorded % inhibition of PGE2 in vivo vs vehicle:
# compound, measurement_unit, % inhibition of PGE2 in vivo vs vehicle
rows = [
    ("Cc1c(CCC(=O)O)cccc1NC(=O)C(c1ccc(-c2cncc(C(F)(F)F)c2)cc1)C1CCC1 (single isomer, unassigned; (-)) [Example 55]", "%", 96),
    ("Cc1c(CCC(=O)O)cccc1NC(=O)[C@@H](c1ccc(-c2cncc(C(F)(F)F)c2)cc1)C1CCCC1 [Example 2]", "%", 94),
    ("Cc1c(CCC(=O)O)cccc1NC(=O)[C@@H](c1ccc(-c2cncc(Cl)c2)cc1)C1CCCC1 [Example 17]", "%", 88),
    ("Cc1c(CCC(=O)O)cccc1NC(=O)C(c1ccc(-c2cncc(Cl)c2)c(F)c1)C1CCCC1 (single isomer, unassigned; (-)) [Example 44]", "%", 100),
    ("Cc1c(CCC(=O)O)cccc1NC(=O)C(c1ccc(-c2cncc(C(F)(F)F)c2)c(F)c1)C1CCCC1 (single isomer, unassigned; (-)) [Example 48]", "%", 78),
]

// % inhibition of PGE2 in vivo vs vehicle lookup, key: Cc1c(NC(=O)C(c2ccc(-c3cncc(Cl)c3)cc2)C2CCCC2)cccc1C(C)CC(=O)O (single isomer, unassigned; stereoisomer 2) [Example 87]
67
